Values from the antibiotic and cytotoxicity screens of Wong et al. (2023)

System: HepG2
assay.procedure: cytotoxicity call (relative viability < 0.9)
condition.notes: 10 µM
Screen size: about 39,000 compounds; about 3,300 (8.5%) were called active. The sample as a whole holds a higher share of actives than the screen did.
// allowed return values: T = active, F = inactive

Consider the following illustrative entries.
| smiles.data | experimental.system | class |
| --- | --- | --- |
| C[C@H]1CN([C@@H](C)CO)C(=O)c2cc(NS(=O)(=O)c3cn(C)cn3)ccc2O[C@@H]1CN(C)CC1CC1 | HepG2 | F |
| COc1ccc(CN(C)C[C@H]2OCCCC[C@H](C)Oc3ccc(NC(=O)Nc4ccc(C(F)(F)F)cc4)cc3C(=O)N([C@@H](C)CO)C[C@@H]2C)cc1 | HepG2 | T |
| COc1ccc(NC(=O)Nc2ccc3c(c2)C(=O)N([C@@H](C)CO)C[C@@H](C)[C@@H](CN(C)Cc2ccc(C(F)(F)F)cc2)OCCCC[C@@H](C)O3)cc1 | HepG2 | F |
| COc1ccc(CN(C)C[C@@H]2OCCCC[C@@H](C)Oc3ccc(NC(=O)Nc4ccc(C(F)(F)F)cc4)cc3C(=O)N([C@H](C)CO)C[C@H]2C)cc1 | HepG2 | T |

Problem: Kindly provide the recorded test outcome for the following compound: `COc1ccc(S(=O)(=O)Nc2ccc3c(c2)C(=O)N([C@H](C)CO)C[C@@H](C)[C@H](CN(C)C(=O)Nc2cccc4ccccc24)O3)cc1`
Solution: F

Problem: Just curious, what result did `COc1ccc(NC(=O)Nc2ccc3c(c2)C(=O)N([C@H](C)CO)C[C@H](C)[C@H](CN(C)Cc2ccc(C(F)(F)F)cc2)OCCCC[C@H](C)O3)cc1` get here?
Solution: F

* * *

Tested on: HepG2
assay.procedure: cytotoxicity call (relative viability < 0.9)
condition.notes: 10 µM
Screen size: about 39,000 compounds; about 3,300 (8.5%) were called active. The list comes from a sample in which actives are over-represented; it also holds close analogues and randomly drawn compounds.
metric: cytotoxicity call

| smiles.data | experimental.system | metric | test.value |
| --- | --- | --- | --- |
| C[C@@H]1CCCCO[C@H](CN(C)C(=O)Nc2ccc(F)cc2)[C@@H](C)CN([C@H](C)CO)C(=O)c2cc(NC(=O)Nc3ccc(F)cc3)ccc2O1 | HepG2 | cytotoxicity call | inactive |
| C[C@@H]1CN([C@@H](C)CO)C(=O)c2cc(NC(=O)CCC(F)(F)F)ccc2O[C@@H]1CN(C)Cc1ccc(-c2ccccc2)cc1 | HepG2 | cytotoxicity call | inactive |
| C[C@H](CO)N1C[C@H](C)[C@@H](CN(C)Cc2ccc(Oc3ccccc3)cc2)Oc2ccc(NC(=O)CCC(F)(F)F)cc2C1=O | HepG2 | cytotoxicity call | inactive |
| C[C@@H]1CN([C@H](C)CO)C(=O)c2cc(NC(=O)CCC(F)(F)F)ccc2O[C@H]1CN(C)Cc1ccc(-c2ccccc2)cc1 | HepG2 | cytotoxicity call | active |
| C[C@H]1CCCCO[C@H](CN(C)C(=O)Nc2ccccc2)[C@@H](C)CN([C@@H](C)CO)C(=O)c2cc(NC(=O)Nc3ccc(F)cc3)ccc2O1 | HepG2 | cytotoxicity call | active |

Problem: Please tell me: cytotoxicity call of `C[C@H](CO)N1C[C@H](C)[C@@H](CN(C)Cc2ccc(-c3ccccc3)cc2)Oc2ccc(NC(=O)CCC(F)(F)F)cc2C1=O` , system HepG2?
Solution: inactive

Problem: Identify the measured cytotoxicity call of `C[C@@H]1CN([C@H](C)CO)C(=O)c2cc(NC(=O)Nc3ccc(F)cc3)ccc2O[C@@H](C)CCCCO[C@H]1CN(C)C(=O)Nc1ccc(F)cc1` for HepG2.
Solution: active

* * *

Test system: HepG2
assay.procedure: cytotoxicity call (relative viability < 0.9)
condition.notes: 10 µM
Out of some 39,000 compounds screened, about 3,300 (8.5%) were called active. The list comes from a sample in which actives are over-represented; it also holds close analogues and randomly drawn compounds.
The categories you may choose from are active, inactive

Below, 3 compounds whose answers are already recorded.
| smiles.data | class |
| --- | --- |
| C[C@H](CO)N1C[C@H](C)[C@@H](CN(C)C(=O)Nc2ccccc2)Oc2ccc(NS(=O)(=O)c3cn(C)cn3)cc2C1=O | inactive |
| C[C@H](CO)N1C[C@H](C)[C@@H](CN(C)C(=O)CCC(F)(F)F)OCCCC[C@H](C)Oc2ccc(NC(=O)CCC(F)(F)F)cc2C1=O | inactive |
| Cc1ccc(S(=O)(=O)Nc2ccc3c(c2)C(=O)N([C@H](C)CO)C[C@@H](C)[C@@H](CN(C)Cc2ccc(C(F)(F)F)cc2)OCCCC[C@@H](C)O3)cc1 | inactive |

Proceed to the following item.
Problem: Check the results log: what was the call for `COc1ccc(S(=O)(=O)Nc2ccc3c(c2)C(=O)N([C@H](C)CO)C[C@H](C)[C@H](CN(C)S(=O)(=O)c2cn(C)cn2)O3)cc1` ?
Solution: inactive

* * *

Test system: HepG2
assay.procedure: cytotoxicity call (relative viability < 0.9)
condition.notes: 10 µM
Screen size: about 39,000 compounds; about 3,300 (8.5%) were called active. The sample as a whole holds a higher share of actives than the screen did.
metric: cytotoxicity call

Consider the reported cytotoxicity call for these compounds:
| compound | cytotoxicity call |
| --- | --- |
| C[C@@H]1CN([C@H](C)CO)C(=O)Cc2cc(NC(=O)CCCCCC(=O)Nc3ccccc3N)ccc2O[C@H]1CN(C)Cc1ccccc1 | inactive |
| O=S(=O)(NCC[C@@H]1CC[C@@H](NS(=O)(=O)c2ccccc2Cl)[C@H](CO)O1)c1ccc(Cl)cc1 | inactive |
| N#CCOc1cccc2ccccc12 | inactive |
| CC(=O)O[C@H]1CC(C)(C)C[C@H]2[C@]13CO[C@@]21CC[C@H]2[C@@]4(C)CC[C@H](O[C@@H]5OC[C@H](O[C@@H]6O[C@H](CO)[C@@H](O)[C@H](O)[C@H]6O[C@@H]6OC[C@@H](O[C@@H]7O[C@H](CO)[C@@H](O)[C@H](O)[C@H]7O)[C@H](O)[C@H]6O)[C@H](O)[C@H]5O[C@@H]5O[C@H](CO)[C@@H](O)[C@H](O)[C@H]5O)[C@@](C)(CO)[C@@H]4CC[C@@]2(C)[C@]1(C)C[C@H]3O | active |
| CC(N)O.Cc1cc(CC(C)CC(C)(C)C)n(O)c(=O)c1 (stereo unspecified) | active |
| COc1cccc(S(=O)(=O)N[C@H]2C=C[C@@H](CC(=O)NC3CCC3)O[C@H]2CO)c1 | inactive |

Problem: Suppose we examine the compound `C[C@@H]1O[C@@H](O[C@H]2[C@H](O)[C@@H](O)[C@H](OC(=O)[C@]34CCC(C)(C)C[C@H]3C3=CC[C@H]5[C@@]6(C)CC[C@H](O[C@@H]7O[C@H](C(=O)O)[C@@H](O)[C@H](O)[C@H]7O)C(C)(C)[C@@H]6CC[C@@]5(C)[C@]3(C)CC4)O[C@@H]2CO)[C@H](O)[C@H](O)[C@H]1O` ; what cytotoxicity call value has been reported?
Solution: inactive

Problem: Look up cytotoxicity call: `C[C@@H]1CN([C@@H](C)CO)C(=O)Cc2cc(NC(=O)Nc3ccc(C(F)(F)F)cc3)ccc2O[C@@H]1CN(C)C(=O)Nc1ccc(C(F)(F)F)cc1`
Solution: active

Problem: Would you mind telling me what cytotoxicity call value was observed for `C[C@@H]1CN([C@H](C)CO)C(=O)Cc2cc(NC(=O)C3CC3)ccc2O[C@H]1CN(C)Cc1ccc(C(=O)O)cc1` ?
Solution: inactive

Problem: For the compound shown here, `COc1ccc(NC(=O)N(C)C[C@H]2OCCCC[C@H](C)Oc3ccc(NC(=O)Cc4ccccc4)cc3C(=O)N([C@@H](C)CO)C[C@H]2C)cc1` , give the reported cytotoxicity call.
Solution: inactive

Problem: Dear colleague, I am looking for the recorded cytotoxicity call of the following compound: `COc1ccc(NC(=O)Nc2ccc3c(c2)CC(=O)N([C@@H](C)CO)C[C@H](C)[C@@H](CN(C)C(=O)Nc2cccc4ccccc24)O3)cc1`
Solution: inactive

* * *

Test system: HepG2
assay.procedure: cytotoxicity call (relative viability < 0.9)
condition.notes: 10 µM
Among all 39,000 compounds or so, about 3,300 (8.5%) were called active. Only a selection was taken, and actives are over-represented in it overall.
metric: cytotoxicity call

| smiles.data | cytotoxicity call |
| --- | --- |
| CC(=O)N(C)C[C@H]1Oc2cc(C#CCN(C)C)ccc2S(=O)(=O)N([C@@H](C)CO)C[C@@H]1C | inactive |
| NCc1ccc2occc2c1 | inactive |
| O=C(N/N=C/[C@@H](O)[C@H](O)[C@H](O)CO)c1ccccc1O | inactive |
| C[C@@H]1CCCCO[C@@H](CN(C)C(=O)Cc2ccccc2)[C@@H](C)CN([C@@H](C)CO)C(=O)c2cc(NC(=O)Nc3ccc(F)cc3)ccc2O1 | inactive |
| C[C@@H]1CCCCO[C@H](CN(C)S(=O)(=O)c2ccc(Cl)cc2)[C@H](C)CN([C@H](C)CO)C(=O)c2cc(NS(=O)(=O)c3cccs3)ccc2O1 | inactive |
| C[C@@H]1CN([C@@H](C)CO)C(=O)c2cc(NS(=O)(=O)c3cccs3)ccc2O[C@@H](C)CCCCO[C@H]1CN(C)S(=O)(=O)c1ccc(Cl)cc1 | active |
| C[C@H](CO)N1C[C@H](C)[C@@H](CN(C)S(=O)(=O)c2ccc(Cl)cc2)OCCCC[C@H](C)Oc2ccc(NS(=O)(=O)c3cccs3)cc2C1=O | inactive |
| C[C@H](CO)N1C[C@H](C)[C@H](CN(C)S(=O)(=O)c2ccc(Cl)cc2)OCCCC[C@H](C)Oc2ccc(NS(=O)(=O)c3cccs3)cc2C1=O | inactive |

Problem: Query: cytotoxicity call; subject: `C[C@@H]1CCCCO[C@H](CN(C)S(=O)(=O)c2ccc(Cl)cc2)[C@H](C)CN([C@@H](C)CO)C(=O)c2cc(NS(=O)(=O)c3cccs3)ccc2O1`
Solution: inactive

Problem: I'd like to know its cytotoxicity call. The compound in question is `C[C@@H]1CCCCO[C@@H](CN(C)S(=O)(=O)c2ccc(Cl)cc2)[C@@H](C)CN([C@@H](C)CO)C(=O)c2cc(NS(=O)(=O)c3cccs3)ccc2O1`
Solution: inactive

Problem: Consider the compound shown here: `O=C(N/N=C/[C@H](O)[C@@H](O)[C@@H](O)[C@H](O)C(=O)O)c1ccccc1O` What is its recorded cytotoxicity call?
Solution: active

Problem: Quick one: cytotoxicity call of `C[C@@H]1CCCCO[C@H](CN(C)S(=O)(=O)c2ccc(Cl)cc2)[C@@H](C)CN([C@@H](C)CO)C(=O)c2cc(NS(=O)(=O)c3cccs3)ccc2O1` ?
Solution: inactive

Problem: Item under review: `C[C@@H]1CCCCO[C@@H](CN(C)S(=O)(=O)c2ccc(Cl)cc2)[C@H](C)CN([C@H](C)CO)C(=O)c2cc(NS(=O)(=O)c3cccs3)ccc2O1` . Reported cytotoxicity call?
Solution: active

Problem: Reported cytotoxicity call for `C[C@@H]1CCCCO[C@@H](CN(C)S(=O)(=O)c2ccc(Cl)cc2)[C@H](C)CN([C@@H](C)CO)C(=O)c2cc(NS(=O)(=O)c3cccs3)ccc2O1` : what is it?
Solution: active
